Catalogue of IFN-γ production (donor X); antibody '0' (5th head as printed), N = 1 readings, one per entry.
- assay.target: T1, TIM-3 protein on human peripheral blood mononuclear lymphocytes (PBMC) (human, UniProt Q8TDQ0 22-301)
- T1 sequence: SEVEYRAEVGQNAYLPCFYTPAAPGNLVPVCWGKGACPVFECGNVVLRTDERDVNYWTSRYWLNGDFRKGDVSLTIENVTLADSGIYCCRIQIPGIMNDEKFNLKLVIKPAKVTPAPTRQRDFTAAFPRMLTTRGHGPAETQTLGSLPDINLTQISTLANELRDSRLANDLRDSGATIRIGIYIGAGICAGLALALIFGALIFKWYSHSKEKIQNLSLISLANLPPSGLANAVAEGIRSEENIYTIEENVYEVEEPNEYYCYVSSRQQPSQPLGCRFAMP
- assay.overview: cell-based or functional assay
Give just the number in pg/mL; leave the unit off.

Here are 2 binders together with their reported answers.
**Q:** What measured IFN-γ production (donor X); antibody '0' (5th head as printed), N = 1 goes with 7A4F10 fully human TIM-3 antibody (human IgG4, kappa) (antibody, V domains shown) VH: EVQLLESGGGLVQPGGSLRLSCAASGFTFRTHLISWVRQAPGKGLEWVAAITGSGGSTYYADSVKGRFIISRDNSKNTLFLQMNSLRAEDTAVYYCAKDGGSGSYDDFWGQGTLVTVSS VL: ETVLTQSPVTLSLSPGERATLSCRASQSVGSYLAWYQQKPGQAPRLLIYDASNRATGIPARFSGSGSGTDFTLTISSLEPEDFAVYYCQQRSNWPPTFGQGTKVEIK ?
**A:** 2290

**Q:** What measured IFN-γ production (donor X); antibody '0' (5th head as printed), N = 1 goes with 18D2H2 fully human TIM-3 antibody (human IgG4, kappa) (antibody, V domains shown) VH: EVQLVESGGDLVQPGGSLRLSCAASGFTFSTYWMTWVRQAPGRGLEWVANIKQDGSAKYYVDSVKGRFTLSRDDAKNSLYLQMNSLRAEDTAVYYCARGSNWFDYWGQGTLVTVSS VL: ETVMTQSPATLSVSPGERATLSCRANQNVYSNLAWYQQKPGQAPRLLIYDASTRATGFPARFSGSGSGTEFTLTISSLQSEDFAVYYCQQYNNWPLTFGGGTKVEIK ?
**A:** 2340

Field: next binder
**Q:** What measured IFN-γ production (donor X); antibody '0' (5th head as printed), N = 1 goes with 34B6D8 fully human TIM-3 antibody (human IgG4, kappa) (antibody, V domains shown) VH: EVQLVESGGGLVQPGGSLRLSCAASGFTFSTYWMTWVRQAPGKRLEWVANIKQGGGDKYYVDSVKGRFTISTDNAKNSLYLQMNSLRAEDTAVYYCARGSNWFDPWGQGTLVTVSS VL: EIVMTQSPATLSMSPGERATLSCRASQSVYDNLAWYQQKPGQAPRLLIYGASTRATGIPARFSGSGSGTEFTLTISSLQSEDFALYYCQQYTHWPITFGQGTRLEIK ?
**A:** 2280
